Just for reference, ChEMBL document CHEMBL5365534 is where these values come from.

# assay-notes: in vitro
# condition-context: human, Caco-2
# Description: Apparent permeability of the compound across apical side to basolateral side in human Caco-2 cells at 10 uM incubated for 2 hrs by LC-MS/MS analysis
observed-property: Papp A→B at 2 h, 10 µM (×10⁻⁶ cm/s)

P = C[C@H]1CCN1c1nc(N2CC[C@H](OCC(=O)O)C2)c2c(n1)C(F)(F)CC2
Q = C[C@H]1CCN1c1nc(N2C[C@H]3CC[C@H](C(=O)O)[C@H]3C2)c2c(n1)C(F)(F)CC2 (racemic)
R = C[C@H]1CCN1c1nc(N2CC[C@H](CCC(=O)O)C2)c2c(n1)C(F)(F)CC2
S = C[C@H]1CCN1c1nc(N2C[C@@H](CC(=O)O)[C@H](O)C2)cc(C(F)(F)F)c1C#N (racemic)
[Q] Kindly order the items shown according to Papp A→B at 2 h, 10 µM, from the highest value down. Put the labels in the requested order and list them out.
[A] Q, R, P, S
(Q: 6.13 ×10⁻⁶ cm/s, R: 3.64 ×10⁻⁶ cm/s, P: 0.23 ×10⁻⁶ cm/s, S: 0.09 ×10⁻⁶ cm/s)

* * *

# assay-notes: in vitro
# condition-context: human, hepatocytes
observed-property: hepatocyte CLint at 2 h, 1 µM

`C[C@H]1CCN1c1nc(N2CC[C@H](CCC(=O)O)C2)c2c(n1)C(F)(F)CC2` has a reported hepatocyte CLint at 2 h, 1 µM of < 0.96 µL/min/1e6 cells

* * *

# assay-notes: Tmax in Sprague-Dawley rat at 10 mg/kg, po administered as single dose measured upto 24 hrs by LC-MS/MS analysis
# Type: ADME, organism-based
# condition-context: in vivo
observed-property: Tmax (h)
I only need the number, in h, no unit after it.

`C[C@H]1CCN1c1nc(N2CC[C@H](CCC(=O)O)C2)c2c(n1)C(F)(F)CC2` has a reported Tmax of 2.33

* * *

# assay-notes: Tmax in Beagle dog at 5 mg/kg, po administered as single dose measured upto 24 hrs by LC-MS/MS analysis
# Format: ADME, organism-based, Canis lupus familiaris
# condition-context: in vivo
observed-property: Tmax (min)
I only need the number, in min, no unit after it.

`C[C@H]1CCN1c1nc(N2CC[C@H](CCC(=O)O)C2)c2c(n1)C(F)(F)CC2` has a reported Tmax of 45

* * *

# assay-notes: in vivo
# condition-context: Sprague-Dawley, rat, liver, po, 10 mg/kg
# Description: Drug concentration in Sprague-Dawley rat liver at 10 mg/kg, po administered as single dose measured upto 24 hrs by LC-MS/MS analysis
observed-property: concentration at 24 h (ng/g)
I only need the number, in ng/g, no unit after it.

`C[C@H]1CCN1c1nc(N2CC[C@H](CCC(=O)O)C2)c2c(n1)C(F)(F)CC2` has a reported concentration at 24 h of 50100

* * *

# assay-notes: in vitro
# condition-context: human, liver microsomes
observed-property: microsomal CLint at 2 h, 1 µM (µL/min/mg)
I only need the number, in µL/min/mg, no unit after it.

`C[C@H]1CCN1c1nc(N2CC[C@H](CCC(=O)O)C2)c2c(n1)C(F)(F)CC2` has a reported microsomal CLint at 2 h, 1 µM of 6.4

* * *

# test-target: Cytochrome P450 2D6 (Homo sapiens)
# Sequence (P10635 whole entry): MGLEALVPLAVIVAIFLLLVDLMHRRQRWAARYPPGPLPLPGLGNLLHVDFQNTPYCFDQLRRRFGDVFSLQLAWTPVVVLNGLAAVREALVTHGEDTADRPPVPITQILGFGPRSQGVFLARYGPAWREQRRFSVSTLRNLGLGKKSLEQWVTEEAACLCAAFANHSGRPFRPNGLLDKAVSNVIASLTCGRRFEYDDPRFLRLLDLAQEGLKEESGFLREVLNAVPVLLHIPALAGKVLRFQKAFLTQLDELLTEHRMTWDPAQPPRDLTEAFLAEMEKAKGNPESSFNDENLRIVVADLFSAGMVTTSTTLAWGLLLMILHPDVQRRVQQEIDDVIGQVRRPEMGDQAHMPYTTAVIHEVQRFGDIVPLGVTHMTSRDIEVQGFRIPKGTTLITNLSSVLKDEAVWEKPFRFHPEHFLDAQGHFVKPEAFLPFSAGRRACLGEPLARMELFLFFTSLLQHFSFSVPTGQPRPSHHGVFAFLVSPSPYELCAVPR
observed-property: IC50

`C[C@H]1CCN1c1nc(N2CC[C@H](CCC(=O)O)C2)c2c(n1)C(F)(F)CC2` has a reported IC50 of > 30 µM

* * *

# assay-notes: in vivo
# condition-context: Sprague-Dawley, rat, heart, po, 10 mg/kg
# Description: Drug concentration in Sprague-Dawley rat heart at 10 mg/kg, po administered as single dose measured upto 24 hrs by LC-MS/MS analysis
observed-property: concentration at 24 h (ng/g)
I only need the number, in ng/g, no unit after it.

`C[C@H]1CCN1c1nc(N2CC[C@H](CCC(=O)O)C2)c2c(n1)C(F)(F)CC2` has a reported concentration at 24 h of 1490
